Molecular target: Fibrinogen beta chain (Homo sapiens)
Experiment: inhibitors of Tn6 peptide binding to fibrin DD(E), primary screen, biochemical, fluorescence polarization, human fibrin, Tn6 probe (AID 720509)
Conditions: Fibrin DD(E) TRITC-Tn6 fluorescence polarization displacement; at 8.3 µM
In all, about 370,000 compounds went through this assay and about 760 (0.21%) were called active.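 The calls were made as follows: active = inhibition above a per-campaign cutoff: mean of compounds within control limits plus 3 SD (cut at about 15% in these data); inactive = the rest.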 For the sample, actives were picked, then their nearest neighbours and some compounds at random.
A correct response names exactly one class from active, inactive

Compound | Group
O=C(CN1CCc2ccccc2C1)Nc1cccc(S(=O)(=O)N2CCOCC2)c1 | inactive

Inquiry: State the result this test recorded for CN(C)c1cccc(NC(=O)c2ccc(-c3ccc(F)c(F)c3)c3ccoc23)c1 .
Reply text: inactive

Inquiry: State the result this test recorded for CC(C)NC(=O)c1ccccc1S(=O)c1ccccc1C#N (centres undefined) .
Reply text: inactive

Inquiry: State the result this test recorded for CCOCC(=O)NCc1ccc2c(c1)cc(C)n2C .
Reply text: active

Inquiry: State the result this test recorded for CC(C)N(c1ccccc1)c1ncnc(NCCC(=O)O)c1[N+](=O)[O-] .
Reply text: inactive

Inquiry: State the result this test recorded for Cc1cc(NC(=O)CCC(=O)N(Cc2ccccc2)C(C(=O)NC2CCCC2)c2ccc(C)o2)no1 (centres undefined) .
Reply text: inactive

Inquiry: State the result this test recorded for O=C(NCc1ccccc1)c1cccc(NC(=O)C2CCCCC2)c1 .
Reply text: inactive

Inquiry: State the result this test recorded for COc1cccc(NC(=O)Cn2c3ccc(F)cc3c3nc4n(c(=O)c32)CCS4)c1 .
Reply text: inactive

Inquiry: State the result this test recorded for CONc1nc2nonc2nc1NOC .
Reply text: active
